- testSystem: Sodium/glucose cotransporter 2 (Homo sapiens)
- Sequence (P31639 whole entry): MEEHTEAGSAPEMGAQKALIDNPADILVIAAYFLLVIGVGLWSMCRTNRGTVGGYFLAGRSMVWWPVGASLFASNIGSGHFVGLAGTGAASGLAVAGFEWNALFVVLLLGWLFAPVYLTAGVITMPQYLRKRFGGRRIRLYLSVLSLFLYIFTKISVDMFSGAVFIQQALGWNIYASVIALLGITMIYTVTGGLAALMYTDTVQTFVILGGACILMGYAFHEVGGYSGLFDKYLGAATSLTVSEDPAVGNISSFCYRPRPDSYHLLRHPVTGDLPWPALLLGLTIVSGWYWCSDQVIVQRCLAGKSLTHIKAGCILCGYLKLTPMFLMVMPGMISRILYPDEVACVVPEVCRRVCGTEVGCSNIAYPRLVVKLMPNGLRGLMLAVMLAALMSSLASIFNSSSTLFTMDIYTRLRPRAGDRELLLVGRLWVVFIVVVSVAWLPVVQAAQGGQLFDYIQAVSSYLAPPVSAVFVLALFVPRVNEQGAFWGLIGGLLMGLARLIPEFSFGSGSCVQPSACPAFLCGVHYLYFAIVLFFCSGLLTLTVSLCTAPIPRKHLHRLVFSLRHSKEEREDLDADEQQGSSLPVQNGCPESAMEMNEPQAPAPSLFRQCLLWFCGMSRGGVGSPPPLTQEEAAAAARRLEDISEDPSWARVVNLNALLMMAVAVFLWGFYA
- methodDescription: Inhibition of human SGLT2 expressed in Xenopus oocyte assessed as [14C]alpha-methyl glucopyranoside uptake
quantityName: EC50 (nM)
Kindly provide the numeric value in nM only, without the unit symbol.

Request: Query the reported EC50 for Sodium/glucose cotransporter 2 (Homo sapiens); item: `Cc1cc(O)c(C(=O)CCc2ccc3occc3c2)c(O[C@@H]2O[C@H](CO)[C@@H](O)[C@H](O)[C@H]2O)c1`
Response: 50

Values compiled from ChEMBL document CHEMBL1140039.
